# tested on: T1, USP7 Ubl123 (535-889) (human, UniProt Q93009 535-889)
# T1 construct: USP7, human, residues 535-889 (spacer helix 535-560 and Ubl1-3); Cloned in p15TV-L; also called native Ubl123; source: E. coli BL21(DE3)mgk, purified (nickel-NTA, SEC)
# T1 sequence (Q93009 535-889): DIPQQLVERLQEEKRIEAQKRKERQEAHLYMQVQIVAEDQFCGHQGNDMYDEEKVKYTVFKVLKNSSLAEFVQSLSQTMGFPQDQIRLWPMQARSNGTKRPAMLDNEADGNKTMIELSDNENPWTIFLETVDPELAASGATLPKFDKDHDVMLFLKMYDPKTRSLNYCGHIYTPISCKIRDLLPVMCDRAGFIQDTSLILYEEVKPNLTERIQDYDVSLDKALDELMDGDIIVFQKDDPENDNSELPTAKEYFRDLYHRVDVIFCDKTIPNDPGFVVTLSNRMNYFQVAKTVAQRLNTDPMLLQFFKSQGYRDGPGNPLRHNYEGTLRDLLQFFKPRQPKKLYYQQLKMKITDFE
# test name: fluorescence polarisation; USP7 proteins titrated (0 to 200 μM) into 40 nM N-terminally FITC-labeled peptide; 0.01% Triton X-100, 150 mM NaCl, 20 mM Tris pH 7.5
# condition set: both partners purified
Primed or numbered codes have the meaning given here. No end group written: not given here. FITC′ = fluorescein isothiocyanate label
quantity name: Kd (µM)

1) {FITC′}-GPRKCARKTRH [FITC-labeled ICP0 peptide] ... 1.6
